# key: entry, value: pKd
# experimental target: T1, postfusion RSV F ectodomain, subtype B (respiratory syncytial virus subtype B)
# T1 construct: extracellular domain; also called Postfusion subtype B
# T1 sequence (P13843 26-109, chain 1 of 2): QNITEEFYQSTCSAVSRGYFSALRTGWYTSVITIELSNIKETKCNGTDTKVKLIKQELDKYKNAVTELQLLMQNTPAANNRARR
# T1 sequence (P13843 147-513, chain 2 of 2): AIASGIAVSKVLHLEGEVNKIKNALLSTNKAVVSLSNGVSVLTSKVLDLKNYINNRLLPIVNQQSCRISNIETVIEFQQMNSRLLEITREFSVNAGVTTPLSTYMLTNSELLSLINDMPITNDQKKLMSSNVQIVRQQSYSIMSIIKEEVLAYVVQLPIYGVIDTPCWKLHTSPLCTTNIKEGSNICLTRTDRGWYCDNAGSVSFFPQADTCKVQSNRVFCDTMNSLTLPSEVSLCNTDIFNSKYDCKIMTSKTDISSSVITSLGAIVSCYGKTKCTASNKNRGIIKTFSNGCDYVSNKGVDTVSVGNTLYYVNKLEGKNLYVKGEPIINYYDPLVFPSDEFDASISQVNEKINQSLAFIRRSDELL
# assay name: BLI, IgG on sensor
Note on pKd: it is the negative log10 of concentration, concentration in mol/L.

ADI-15573 (antibody, V domains shown, IgG; also called Antibody Number 143) VH: QVQLVQSGAEVKKPGASVKISCKTSGYTFTSSVISWVRQAPGQGLEWVGWITGHRSSTNYAQRLQGRVTMTTDTSTSTAYMELRSLRSDDTAVYYCARADGGSGSYYSAWGQGTLVTVSS VL: SYELTQPPSASVAPGKTARISCGGNNIGTKSVHWYQQKPGQAPVLVIYHDSHRPSGIPERFSGSNSGNTATLTISRVEAGDEADYYCQLWDSSSDSHVFGTGTKLTVL ... 9.70
ADI-15641 (antibody, V domains shown, IgG; also called Antibody Number 205) VH: QVQLVESGGGVVQPGRSLRVSCAASGFDFSNYAMHWVRQAPGKGLEWVALISYDGNNKVYADSVKGRFTVSRDNSKNTLYLQMNSLRPEDTAVIYCAKDGYLAPDFWGQGTLVTVSS VL: QSVLTQPASVSGSPGQSIIISCTGTSSDVGEYDYVSWYQHHPHKAPKLIIYEVSNRPSGVSNRFSGSKSGNTASLTISGLQAEDEADYYCSSYTSSSGQAFGTGTKVTVL ... 9.87
ADI-15600 (antibody, V domains shown, IgG; also called Antibody Number 166) VH: EVQLVESGGGLIQPGGSLRLSCAVSGFSVSSNYISWVRQPPGKGLEWVSVSYSSGVTDYADSVKGRFTTSRDNSKNTLYLQMNSLRGEDTAVYYCARELVPNFYESHGYFSVWGQGTLVTVSS VL: DIVMTQSPGTLSLSPGERATLSCRASQRVDSSYLAWYQQKPGQAPRLLIYGGSSRATGIPDRFSGSGSGTDFTLTISRLEPEDFALYYCQQYGFSQTFGQGTKVEIK ... 9.83

Asked: Given the entry ADI-15593 (antibody, V domains shown, IgG; also called Antibody Number 160) VH: QVQLVQSGGGLVRPGGSLRLSCAASGFMFSTYSMNWLRTVPGKGLEWVSSISGSSSHIYYADSVKGRFTISRDNTKNSLYLQMNSLRPEDTALYYCARYFGDYSGLGNYYYYGMDVWGQGTTVTVSS VL: DIVMTQSPVSLPVTPGEPASISCRSSQSLLHSNGNNYLDWYLQRPGQSPQLLIYLGSNRASGVPDRFSGSGSGTDFTLRISRVEAEDVGVYYCMQALQTPRFGGGTKVEIK , report its measured pKd.
Given back: 9.12

Asked: Item under review: ADI-15645 (antibody, V domains shown, IgG) VH: EVQLLESGGGLVQPGGSLRLSCAASGFTFSSYAMSWVRQIPGKGLEWVSTINISGGSTYYADSVKGRFTISRDNSRDTVFLQMNGLRAEDTALYYCARGYHIDWFDFWGQGTLVTVSS VL: DIVLTQTPSSVSASVGDRVTITCRASQDIGSWLAWYQQKPGKAPQFLIYAASQLQSGVPSRFSGSGSGTDFTLTISSLQPEDFATYYCQQAKSLPRTFGGGTKVDIK . Reported pKd?
Given back: 9.45

src = patent US20220144922A1
